Tested on: Leishmania infantum
Assay: MMV: Inhibition of Leishmania infantum (MHOM/MA/BE/67) in vitro.
Assay type: functional, organism-based
# reported IC50; entries follow

Below, 3 compounds whose answers are already recorded.
• c1ccc2cc3c(Nc4ccc(N5CCOCC5)cc4)ccnc3cc2c1 = > 32 µM
• COc1cc(C(=O)Nc2nc3c(cc4c5c(cccc53)CC4)s2)cc(OC)c1OC = 16.2 µM
• CCOC(=O)c1cn(CC)c2cc(N(C)CCc3ccc(OC)c(OC)c3)c(F)cc2c1=O = > 32 µM

Quick one: IC50 for COc1cccc(Cn2c(Oc3ccccc3)nc3c2c(=O)n(C)c(=O)n3C)c1 ?
> 32 µM

Returns the measured IC50 for the input compound. Input: COc1cccc(NC(=O)Cn2c(C)c(C#N)c3ccccc32)c1
> 32 µM

Any idea what its IC50 is? The compound is O=C1CC(O)(C(F)(F)C(F)(F)F)Oc2ccccc21 (stereo not given)
> 32 µM

IC50 lookup needed for COc1cc2cc(C(=O)Nc3ccccc3)c(N)nc2cc1OC , thanks.
> 32 µM

For the compound shown here, O=C(NC1CCN(Cc2ccccc2)CC1)c1cc2nc(-c3ccc(Cl)s3)cc(C(F)(F)F)n2n1 , give the reported IC50.
16 µM

May I ask what IC50 has been recorded for COc1ccc(C(=O)NC(c2ccccc2Cl)c2cc(Cl)c3cccnc3c2O)cc1 (stereo not given) ?
> 32 µM

# input compound: C[n+]1c2ccccc2nc2ccc(NCCO)cc21 ; wanted: its IC50
> 32 µM
